src = ChEMBL document CHEMBL4689842

For each record, write down the corresponding Growth Rate.
tested on: Fibroblast; experiment: Incucyte cell viability with human fibroblast; assay type: toxicity, cell-based; details: 12 h, 10 µM, compound concentration 10 uM, replicate number 1, timepoint 12 hours; further: filed as whole numbers so only -1 and 0 and 1 occur
One number for each entry.

>  <COMPOUND>
FC(F)(F)c1c(N2CCC(c3ccccc3)CC2)ccn2c(CC3CC3)nnc12

>  <RESULT NUMBER>
1

$$$$
>  <COMPOUND>
Nc1ccc(C(=O)Nc2cccc(-c3nc(N4CCOCC4)c4oc5ncccc5c4n3)c2)cn1

>  <RESULT NUMBER>
0

$$$$
>  <COMPOUND>
COc1cc(N2CCC(N(C)C)CC2)ccc1Nc1ncc(Cl)c(Nc2ccccc2P(C)(C)=O)n1

>  <RESULT NUMBER>
0

$$$$
>  <COMPOUND>
CN(C)C(=O)Cn1cc(-c2nc(C3(c4ccc(-c5cnc(N)nc5)cc4)CC3)no2)cn1

>  <RESULT NUMBER>
0

$$$$

# batch size: 2; output Growth Rate per entry
1. CC(C)N1CCC(C)(C)c2cc(C#Cc3ccc(C(=O)O)cc3)ccc21
2. N#Cc1ccc(Nc2ccc3[nH]c(=O)[nH]c3c2)c(Cl)c1 [TP-021n]

1: 0; 2: 0

# batch size: 2; output Growth Rate per entry
1. CCCc1cc(C)[nH]c(=O)c1CNC(=O)c1cc(-c2ccnc(N3CCN(C)CC3)c2)cc2c1cnn2C(C)C
2. Cc1cc(C(=O)N2Cc3cnn(C)c3Nc3ccccc32)ccc1CNC(=O)N1CCC[C@H]1C(=S)N1CCCN(C)CC1

1. 1
2. 1
